Encapsulation rate (%) for assorted compounds
- MEASUREMENT_PROTOCOL: Encapsulation rate of mRNA-loaded lipid nanoparticles (Ribogreen kit)
- Assay type: physicochemical
- MEASUREMENT_PARAMETERS: Table 1; Luciferase mRNA LNP; cationic lipid:DSPC:cholesterol:DMG-PEG2000 50:10:38.5:1.5 molar
MEASURED_PROPERTY: Encapsulation rate (%)

COMPOUND	MEASURED_PROPERTY	TEST_RESULT
CCCCCCCCOCC(C)C(=O)OCCCCCN(CCO)CCCCCCCC(=O)OC(CCCCCCCC)CCCCCCCC (stereo not shown)	Encapsulation rate (%)	96.1
CCCCCCCCSC(CCCCCC)C(=O)OCCCCCCN(CCO)CCCCCCOC(=O)C(CCCCCC)CCCCCCCC (stereo not shown)	Encapsulation rate (%)	95.6
CCCCCCCCCCSCC(C)C(=O)OCCCCCN(CCO)CCCCCCCC(=O)OC(CCCCCCCC)CCCCCCCC (stereo not shown)	Encapsulation rate (%)	95.7
CCCCCCCCSCC(C)C(=O)OCCCCCN(CCO)CCCCCCCOC(=O)C(CCCCCCCC)CCCCCCCC (stereo not shown)	Encapsulation rate (%)	96.4
CCCCCCCCSCC(C)C(=O)OCCCCCN(CCO)CCCCCCCC(=O)OC(CCCCCCCC)CCCCCCCC (stereo not shown)	Encapsulation rate (%)	90.4
CCCCCCCCOCC(CCCC)C(=O)OCCCCCN(CCO)CCCCCCCC(=O)OC(CCCCCCCC)CCCCCCCC (stereo not shown)	Encapsulation rate (%)	63.9
CCCCCCCCC(CCCCCCCC)C(=O)OCCCCCCCN(CCO)CCCCCCCOC(=O)C(C)COCCCCCC (stereo not shown)	Encapsulation rate (%)	92.5

====

- MEASUREMENT_PROTOCOL: Particle size, PDI and zeta potential of mRNA-loaded lipid nanoparticles (Malvern Zetasizer nano)
- Assay type: physicochemical
- MEASUREMENT_PARAMETERS: Table 1; Luciferase mRNA LNP; cationic lipid:DSPC:cholesterol:DMG-PEG2000 50:10:38.5:1.5 molar
# note: boundary value 0.1 maps to 0; PDI below it maps to 1

COMPOUND	ASSIGNED_CLASS
CCCCCCCCCCSCCC(=O)OCCCCCN(CCO)CCCCCCCC(=O)OC(CCCCCCCC)CCCCCCCC	1
CCCCCCCCCCSCCOC(=O)CCCCCCCN(CCO)CCCCCCCC(=O)OC(CCCCCCCC)CCCCCCCC	0
CCCCCCCCCCOCC(CCC)C(=O)OCCCCCN(CCO)CCCCCCCC(=O)OC(CCCCCCCC)CCCCCCCC (centres unmarked)	0
CCCCCCCCOCC(CCCC)C(=O)OCCCCCN(CCO)CCCCCCCC(=O)OC(CCCCCCCC)CCCCCCCC (centres unmarked)	0
CCCCCCCCSCC(CC)C(=O)OCCCCCN(CCO)CCCCCCCC(=O)OC(CCCCCCCC)CCCCCCCC (centres unmarked)	0
CCCCCCCCCCSCCC(=O)OCCCCCN(CCCCCCCC(=O)OC(CCCCCCCC)CCCCCCCC)CCN(C)C	0

====

- MEASUREMENT_PROTOCOL: Particle size, PDI and zeta potential of mRNA-loaded lipid nanoparticles (Malvern Zetasizer nano)
- Format: physicochemical
- MEASUREMENT_PARAMETERS: Table 1; Luciferase mRNA LNP; cationic lipid:DSPC:cholesterol:DMG-PEG2000 50:10:38.5:1.5 molar
Particle size (nm) overview

COMPOUND	Particle size (nm)
CCCCCCCCCCSCCC(=O)OCCCCCN(CCO)CCCCCCCC(=O)OC(CCCCCCCC)CCCCCCCC	105.5
CCCCCCCCCCOCC(CC)C(=O)OCCCCCN(CCO)CCCCCCCC(=O)OC(CCCCCCCC)CCCCCCCC (stereo not shown)	113.9
CCCCCCCCOCC(CCCC)C(=O)OCCCCCN(CCO)CCCCCCCC(=O)OC(CCCCCCCC)CCCCCCCC (stereo not shown)	95.6
CCCCCCCCSCCOC(=O)CCCCCCCN(CCCCCCCC(=O)OC(CCCCCCCC)CCCCCCCC)CCN(C)C	102.3
CCCCCCCCSC(CCCCCC)C(=O)OCCCCCCN(CCO)CCCCCCOC(=O)C(CCCCCC)CCCCCCCC (stereo not shown)	101.3
CCCCC/C=C\C/C=C\CCCCCCCCC(CCCCCCCC/C=C\C/C=C\CCCCC)OC(=O)CCCN(C)C [DLin-MC3-DMA, reference compound]	102.3
CCCCCCCCCCOCC(CCC)C(=O)OCCCCCN(CCO)CCCCCCCC(=O)OC(CCCCCCCC)CCCCCCCC (stereo not shown)	94.4
CCCCCCCCCCSCCC(=O)OCCCCCN(CCCCCCCC(=O)OC(CCCCCCCC)CCCCCCCC)CCN(C)C	122.8
CCCCCCCCC(CCCCCCCC)C(=O)OCCCCCCCN(CCO)CCCCCCCOC(=O)C(C)COCCCCCC (stereo not shown)	90.9
CCCCCCCCC(CCCCCCCC)OC(=O)CCCCCCCN(CCO)CCCCCCC(=O)OCCOCCCCCCC	119.0
CCCCCCCCOCC(C)C(=O)OCCCCCN(CCCCCCCC(=O)OC(CCCCCCCC)CCCCCCCC)CCN(CC)CC (stereo not shown)	127.6
CCCCCCCCSCC(CC)C(=O)OCCCCCN(CCO)CCCCCCCC(=O)OC(CCCCCCCC)CCCCCCCC (stereo not shown)	98.4
CCCCCCCCSCC(C)C(=O)OCCCCCN(CCCO)CCCCCCCC(=O)OC(CCCCCCCC)CCCCCCCC (stereo not shown)	94.2
CCCCCCCCCCSCCOC(=O)CCCCCCCN(CCO)CCCCCCCC(=O)OC(CCCCCCCC)CCCCCCCC	123.4
CCCCCCCCSCC(C)C(=O)OCCCCCN(CCO)CCCCCCCC(=O)OC(CCCCCCCC)CCCCCCCC (stereo not shown)	104.5
CCCCCCCCSCC(C)C(=O)OCCCCCN(CCO)CCCCCCCOC(=O)C(CCCCCCCC)CCCCCCCC (stereo not shown)	104.1
CCCCCCCCCCOCC(C)C(=O)OCCCCCN(CCO)CCCCCCCC(=O)OC(CCCCCCCC)CCCCCCCC (stereo not shown)	97.3
CCCCCCCCCCSCC(C)C(=O)OCCCCCN(CCO)CCCCCCCC(=O)OC(CCCCCCCC)CCCCCCCC (stereo not shown)	121.2
CCCCCCCCOCC(C)C(=O)OCCCCCN(CCO)CCCCCCCC(=O)OC(CCCCCCCC)CCCCCCCC (stereo not shown)	78.9

====

Reported PDI values for a set of compounds
- MEASUREMENT_PROTOCOL: Particle size, PDI and zeta potential of mRNA-loaded lipid nanoparticles (Malvern Zetasizer nano)
- Assay type: physicochemical
- MEASUREMENT_PARAMETERS: Table 4 batch; EPO mRNA LNP prepared as Example 20
MEASURED_PROPERTY: PDI

COMPOUND	MEASURED_PROPERTY	TEST_RESULT
CCCCCCCCC(CCCCCCCC)C(=O)OCCCCCCCN(CCO)CCCCCCCOC(=O)C(C)CSCCCCCC (stereo not drawn)	PDI	0.15
CCCCCCCCC(CCCCCCCC)OC(=O)CCCCCCCN(CCO)CCCCCCCOC(=O)C(C)COCCCCCC (stereo not drawn)	PDI	0.11
CCCCCCCCSCC(C)C(=O)OCCCCCN(CCO)CCCCCCCOC(=O)C(CCCCCCCC)CCCCCCCC (stereo not drawn)	PDI	0.17
CCCCCCCCOCC(C)C(=O)OCCCCCN(CCO)CCCCCCCOC(=O)C(CCCCCCCC)CCCCCCCC (stereo not drawn)	PDI	0.12
CCCCC/C=C\C/C=C\CCCCCCCCC(CCCCCCCC/C=C\C/C=C\CCCCC)OC(=O)CCCN(C)C [DLin-MC3-DMA, reference compound]	PDI	0.19
CCCCCCCCOCC(C)C(=O)OCCCCCN(CCO)CCCCCCCC(=O)OC(CCCCCCCC)CCCCCCCC (stereo not drawn)	PDI	0.09
CCCCCCCCC(CCCCCCCC)OC(=O)CCCCCCCN(CCO)CCCCCCCOC(=O)C(C)CSCCCCCC (stereo not drawn)	PDI	0.14
CCCCCCCCC(CCCCCCCC)C(=O)OCCCCCCCN(CCO)CCCCCCCOC(=O)C(C)COCCCCCC (stereo not drawn)	PDI	0.09
CCCCCCCCSCC(C)C(=O)OCCCCCN(CCO)CCCCCCCC(=O)OC(CCCCCCCC)CCCCCCCC (stereo not drawn)	PDI	0.12

====

- MEASUREMENT_PROTOCOL: Particle size, PDI and zeta potential of mRNA-loaded lipid nanoparticles (Malvern Zetasizer nano)
- Type: physicochemical
- MEASUREMENT_PARAMETERS: Table 1; Luciferase mRNA LNP; cationic lipid:DSPC:cholesterol:DMG-PEG2000 50:10:38.5:1.5 molar
# reported Zeta potential (mV); entries follow

MOLECULE	UNITS_TEXT	Zeta potential (mV)
CCCCCCCCCCOCC(CCC)C(=O)OCCCCCN(CCO)CCCCCCCC(=O)OC(CCCCCCCC)CCCCCCCC (centres unmarked)	mV	0.39
CCCCCCCCCCOCC(C)C(=O)OCCCCCN(CCO)CCCCCCCC(=O)OC(CCCCCCCC)CCCCCCCC (centres unmarked)	mV	0.49
CCCCCCCCCCSCCOC(=O)CCCCCCCN(CCO)CCCCCCCC(=O)OC(CCCCCCCC)CCCCCCCC	mV	−7.02
CCCCCCCCSCCOC(=O)CCCCCCCN(CCCCCCCC(=O)OC(CCCCCCCC)CCCCCCCC)CCN(C)C	mV	7.37
CCCCC/C=C\C/C=C\CCCCCCCCC(CCCCCCCC/C=C\C/C=C\CCCCC)OC(=O)CCCN(C)C [DLin-MC3-DMA, reference compound]	mV	−0.03
CCCCCCCCCCOCC(CC)C(=O)OCCCCCN(CCO)CCCCCCCC(=O)OC(CCCCCCCC)CCCCCCCC (centres unmarked)	mV	1.95
CCCCCCCCOCC(C)C(=O)OCCCCCN(CCO)CCCCCCCC(=O)OC(CCCCCCCC)CCCCCCCC (centres unmarked)	mV	−3.77
CCCCCCCCSCC(C)C(=O)OCCCCCN(CCCO)CCCCCCCC(=O)OC(CCCCCCCC)CCCCCCCC (centres unmarked)	mV	−0.14
